This listing pairs binders with measured IC50 (CAGA12 luciferase).
- Study target: LTBP-proTGFβ1 in the LN229 CAGA12 assay of Table 20 (endogenous or over-expressed murine LTBP1 not stated)
- Measurement description: cell-based or functional assay
Give me the value, and tack the unit on after it.

Prompt line: Answer with the recorded IC50 (CAGA12 luciferase) for the binder listed here: SR-AB42-HuFab (Fab, V domains shown) VH: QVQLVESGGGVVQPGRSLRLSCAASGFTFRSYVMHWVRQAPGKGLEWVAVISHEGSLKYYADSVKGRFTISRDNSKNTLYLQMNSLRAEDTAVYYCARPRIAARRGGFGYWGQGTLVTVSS VL: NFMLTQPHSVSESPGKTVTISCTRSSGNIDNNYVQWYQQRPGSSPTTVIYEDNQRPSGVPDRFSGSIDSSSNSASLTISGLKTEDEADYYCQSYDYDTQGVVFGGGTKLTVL
Response line: 668 pM

Prompt line: Respond only with IC50 (CAGA12 luciferase) recorded for SR-AB43-HuFab (Fab, V domains shown) VH: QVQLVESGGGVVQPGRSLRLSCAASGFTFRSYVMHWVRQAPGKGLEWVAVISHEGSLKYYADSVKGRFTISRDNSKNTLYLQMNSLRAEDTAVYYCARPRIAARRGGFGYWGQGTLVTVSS VL: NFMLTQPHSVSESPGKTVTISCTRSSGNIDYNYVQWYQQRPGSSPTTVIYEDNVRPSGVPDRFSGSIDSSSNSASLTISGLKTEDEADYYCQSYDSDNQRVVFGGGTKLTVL
Response line: 1080 pM
